- tested.target: T1, Avi-tagged BIN1 SH3 domain (human, UniProt O00499 520-593, biotin within the 15 amino acid AviTag peptide (enzymatic, in E. coli))
- T1 chain: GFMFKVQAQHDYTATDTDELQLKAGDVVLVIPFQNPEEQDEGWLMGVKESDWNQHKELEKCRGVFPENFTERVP
- procedure.summary: SPR
pKd: −log10 of the molar value.
The reader will find reported pKd values listed item by item below.

What does the record list as pKd for Ac-KPSKSPPPPPPARS-NH2 [p140Cap 14-mer peptide 1033-1046 with alanine substitution of the N-terminal arginine (class IIb)] ?
< 4.12

Thanks! And KSPPPPP [p140Cap native class I 7-mer peptide] ?
< 4.12

***
What does the record list as pKd for PPPPPPR [p140Cap native class IIb 7-mer peptide] ?
< 4.12
